All figures here come from patent US9624208B2.

pIC50 for assorted compounds
# TARGET DESC: human Nav1.7 (Homo sapiens, UniProt Q15858)
# Construct: expressed in transfected cells
# Sequence (Q15858 whole entry): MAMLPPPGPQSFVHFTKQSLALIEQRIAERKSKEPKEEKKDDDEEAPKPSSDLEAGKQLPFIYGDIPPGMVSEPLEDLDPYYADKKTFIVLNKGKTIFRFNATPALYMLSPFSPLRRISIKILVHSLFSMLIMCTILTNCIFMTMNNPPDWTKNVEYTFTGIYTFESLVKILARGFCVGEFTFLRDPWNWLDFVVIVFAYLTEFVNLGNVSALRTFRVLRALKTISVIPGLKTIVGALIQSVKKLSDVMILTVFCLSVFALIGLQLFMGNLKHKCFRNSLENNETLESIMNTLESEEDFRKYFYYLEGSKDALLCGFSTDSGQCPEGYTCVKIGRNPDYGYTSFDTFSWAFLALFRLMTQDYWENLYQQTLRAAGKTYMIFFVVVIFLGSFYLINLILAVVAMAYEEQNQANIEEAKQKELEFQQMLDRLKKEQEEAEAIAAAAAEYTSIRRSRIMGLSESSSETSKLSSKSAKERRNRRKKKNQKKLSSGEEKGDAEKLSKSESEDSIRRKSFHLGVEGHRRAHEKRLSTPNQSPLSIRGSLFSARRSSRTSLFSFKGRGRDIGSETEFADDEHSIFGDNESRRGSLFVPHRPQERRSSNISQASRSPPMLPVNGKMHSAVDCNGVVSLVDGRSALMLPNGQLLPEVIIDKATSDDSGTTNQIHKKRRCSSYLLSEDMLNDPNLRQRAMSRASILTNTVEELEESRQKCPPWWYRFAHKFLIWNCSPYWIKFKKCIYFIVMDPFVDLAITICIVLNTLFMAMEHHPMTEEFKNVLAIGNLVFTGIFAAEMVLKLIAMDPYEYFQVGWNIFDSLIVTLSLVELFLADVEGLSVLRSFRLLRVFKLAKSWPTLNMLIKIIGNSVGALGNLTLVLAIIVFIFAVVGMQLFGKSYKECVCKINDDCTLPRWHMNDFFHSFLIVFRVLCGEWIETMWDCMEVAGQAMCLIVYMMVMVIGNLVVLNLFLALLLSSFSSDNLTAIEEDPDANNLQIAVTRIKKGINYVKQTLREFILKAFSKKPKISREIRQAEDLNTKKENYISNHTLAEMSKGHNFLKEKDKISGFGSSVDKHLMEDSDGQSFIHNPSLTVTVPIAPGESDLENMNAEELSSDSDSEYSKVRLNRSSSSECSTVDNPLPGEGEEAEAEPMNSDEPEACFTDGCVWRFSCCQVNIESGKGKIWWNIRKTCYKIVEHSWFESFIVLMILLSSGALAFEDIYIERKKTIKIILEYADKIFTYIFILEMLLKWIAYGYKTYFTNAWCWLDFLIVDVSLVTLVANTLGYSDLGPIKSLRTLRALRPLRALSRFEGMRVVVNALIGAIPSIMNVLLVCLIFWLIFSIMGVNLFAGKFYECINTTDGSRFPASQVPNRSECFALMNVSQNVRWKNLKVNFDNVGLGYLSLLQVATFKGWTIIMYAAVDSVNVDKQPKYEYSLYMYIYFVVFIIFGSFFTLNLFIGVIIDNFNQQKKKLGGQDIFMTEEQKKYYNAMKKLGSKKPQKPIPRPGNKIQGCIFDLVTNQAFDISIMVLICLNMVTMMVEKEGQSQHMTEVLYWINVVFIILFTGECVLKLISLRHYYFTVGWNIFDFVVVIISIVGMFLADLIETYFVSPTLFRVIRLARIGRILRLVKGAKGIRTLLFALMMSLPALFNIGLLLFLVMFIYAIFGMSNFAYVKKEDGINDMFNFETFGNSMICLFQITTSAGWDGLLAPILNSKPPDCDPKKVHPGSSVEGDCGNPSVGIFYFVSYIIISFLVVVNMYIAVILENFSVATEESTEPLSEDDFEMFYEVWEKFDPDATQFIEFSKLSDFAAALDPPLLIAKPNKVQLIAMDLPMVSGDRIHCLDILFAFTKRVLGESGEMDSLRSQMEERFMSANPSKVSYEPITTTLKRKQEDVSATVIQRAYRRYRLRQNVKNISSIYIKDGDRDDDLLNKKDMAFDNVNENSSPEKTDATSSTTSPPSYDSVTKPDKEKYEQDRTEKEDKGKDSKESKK
# MEASUREMENT NOTES: PatchXpress sodium current measurement, inactivated state block, Nav1.7
# Format: cell-based
# ASSAY CONTEXT: channels stably expressed in HEK 293 cells, double-pulse protocol, 22° C., read-out: potency for the Nav 1.7 sodium ion channel (1.7=)
Convention used: pIC50 is expressed as -log10 of the molar concentration.

A selection of reference data follows.
Request: Given the compound Cc1cc2c(cc1S(=O)(=O)Nc1cccc(F)n1)oc(=O)n2[C@H](C)c1cccc(Br)c1 , what is its reported pIC50?
Result: 7.24

Request: Consider next the compound C[C@H](c1cccc(CCCN2CCC2)c1)n1c(=O)oc2cc(S(=O)(=O)Nc3cccc(F)n3)c(F)cc21 in the same way.
Result: 6.77

Request: Consider next the compound O=c1oc2cc(S(=O)(=O)Nc3cccc(F)n3)c(F)cc2n1C1CCCc2ccc(F)cc21 (stereo not drawn) in the same way.
Result: 6.19

***
Request: Given the compound C[C@H](c1ccccc1C1CN(S(C)(=O)=O)C1)n1c(=O)oc2cc(S(=O)(=O)Nc3cccc(F)n3)c(F)cc21 , what is its reported pIC50?
Result: 6.67

Request: Consider next the compound Cc1cc2c(cc1S(=O)(=O)Nc1cccc(F)n1)oc(=O)n2[C@H](C)c1cccc(C)c1Br in the same way.
Result: 6.97

Request: Consider next the compound C[C@H](c1ccccc1C#CCN1CCC1)n1c(=O)oc2cc(S(=O)(=O)Nc3cccc(F)n3)c(F)cc21 in the same way.
Result: 6.63

Request: Consider next the compound C[C@H](c1ccccc1C#CC1(N)CCCCC1)n1c(=O)oc2cc(S(=O)(=O)Nc3cccc(F)n3)c(F)cc21 in the same way.
Result: 7.31

Request: Consider next the compound Cc1cc2c(cc1S(=O)(=O)Nc1cccc(F)n1)oc(=O)n2[C@H](C)c1cccc(C)c1C#C[C@H]1CCCC[C@H]1N in the same way.
Result: 7.80

Request: Consider next the compound C[C@H](c1cccc2c1CNCC2)n1c(=O)oc2cc(S(=O)(=O)Nc3cccc(F)n3)ccc21.Cl [Ex2-5, hydrochloride] in the same way.
Result: 6.82

Request: Consider next the compound C[C@H](c1ccccc1CN1CCCCC1)n1c(=O)oc2cc(S(=O)(=O)Nc3cccc(F)n3)c(F)cc21 in the same way.
Result: 6.52

Request: Consider next the compound Cc1cc2c(cc1S(=O)(=O)Nc1cccc(F)n1)oc(=O)n2[C@H](C)c1ccccc1C1=CCNCC1 in the same way.
Result: 8.22

Request: Consider next the compound NC1CCc2cccc(Cn3c(=O)oc4cc(S(=O)(=O)Nc5cccc(F)n5)ccc43)c2C1 (single isomer, unassigned) in the same way.
Result: 6.83

Request: Consider next the compound C[C@H](c1cccc(C#CC2(N)CCCCC2)c1)n1c(=O)oc2cc(S(=O)(=O)Nc3cccc(F)n3)c(F)cc21 in the same way.
Result: 6.65

Request: Consider next the compound C[C@H](c1cccc(C#CC2CCCN2)c1)n1c(=O)oc2cc(S(=O)(=O)Nc3cccc(F)n3)c(F)cc21 (stereo partly drawn) in the same way.
Result: 6.47

Request: Consider next the compound C[C@H](c1ccccc1C1=CCNCC1)n1c(=O)oc2cc(S(=O)(=O)Nc3cccc(F)n3)c(F)cc21 in the same way.
Result: 8.52
